tested on: 945468-187-T-J2-PDC spheroids viability; test: Anticancer human tumor 945468-187-T-J2-PDC patient-derived rectal carcinoma cell line growth inhibition [PI3K]; settings: second compound 3.16 µM; first compound 3.16 µM; stronger effect = lower value; spheroids with HUVEC and MSC
Below, each entry is listed alongside its reported viability, T/C.
Quick reminder: number only, in %, skip the unit.

Recorded results for 4 compounds are shown here.
[
  {
    "compound": "CC1(C)CCC(Nc2ncc(C(F)(F)F)c(-c3c[nH]c4c(P(C)(C)=O)c(C#N)ccc34)n2)CN1 (stereo not given) + Cc1nc(NC(=O)N2CCCC2C(N)=O)sc1-c1ccnc(C(C)(C)C(F)(F)F)c1",
    "observed": 50.1
  },
  {
    "compound": "C#Cc1c(F)ccc2cc(O)cc(-c3ncc4c(N5CC6CCC(C5)N6)nc(OCC56CCCN5CC(F)C6)nc4c3F)c12 (stereo not given) + CC(Nc1ncnc2nc[nH]c12)c1cc2cccc(Cl)c2c(=O)n1-c1ccccc1",
    "observed": 114
  },
  {
    "compound": "Cn1nccc1Nc1nccc(-c2ccn(C(CO)c3ccc(Cl)c(F)c3)c(=O)c2)n1 (stereo not given) + Cc1nc(NC(=O)N2CCCC2C(N)=O)sc1-c1ccnc(C(C)(C)C(F)(F)F)c1",
    "observed": 79.7
  },
  {
    "compound": "C[C@@H](NC(=O)c1ncnc(N)c1Cl)c1ncc(C(=O)Nc2cc(C(F)(F)F)c(Cl)cn2)s1 + Cc1nc(NC(=O)N2CCCC2C(N)=O)sc1-c1ccnc(C(C)(C)C(F)(F)F)c1",
    "observed": 89.5
  }
]

Then there is this compound:
Q: Would you kindly share the measured viability, T/C for Cn1nccc1Nc1nccc(-c2ccn(C(CO)c3ccc(Cl)c(F)c3)c(=O)c2)n1 (stereo not given) + CC(Nc1ncnc2nc[nH]c12)c1cc2cccc(Cl)c2c(=O)n1-c1ccccc1 ?
Ans: 140

----------
Reported viability, T/C is given for each of the following compounds.
tested on: 945468-187-T-J2-PDC spheroids viability; experiment: Anticancer human tumor 945468-187-T-J2-PDC cell line growth inhibition [PI3K]; conditions: compound 0.316 µM; stronger effect = lower value; spheroids with HUVEC and MSC;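 further: spheroids exposed to compounds for seven days before reading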

Q: Sample "CCN1CCN(Cc2ccc(Nc3ncc(F)c(-c4cc(F)c5nc(C)n(C(C)C)c5c4)n3)nc2)CC1" — what was its viability, T/C?
Ans: 98.3% [middle of 4 runs]

Q: Bench note: what viability, T/C did "CC1(C)CCC(CN2CCN(c3ccc(C(=O)NS(=O)(=O)c4ccc(NCC5CCOCC5)c([N+](=O)[O-])c4)c(Oc4cnc5[nH]ccc5c4)c3)CC2)=C(c2ccc(Cl)cc2)C1" show?
Ans: 94.6% [middle of 4 runs]

Q: Looking for the measured viability, T/C of CC(Nc1ccc2c(c1)OCCn1cc(N3C(=O)OCC3C(F)F)nc1-2)C(N)=O (stereo not given) , can you help?
Ans: 91.7% [middle of 8 runs]

Q: Look up viability, T/C: "COc1c(OCCCN2CCOCC2)ccc2c3n(c(=NC(=O)c4cnc(N)nc4)nc12)CCN3"
Ans: 40.8% [middle of 8 runs]

Q: Recorded viability, T/C of CC(Nc1ncnc2nc[nH]c12)c1cc2cccc(Cl)c2c(=O)n1-c1ccccc1 (stereo not given) , please.
Ans: 96.3% [middle of 8 runs]

Q: GET /values?readout=viability, T/C&item= C=CC(=O)N1CCN(c2nc(=O)n(-c3c(C)ccnc3C(C)C)c3nc(-c4c(O)cccc4F)c(F)cc23)C(C)C1 (stereo not given)
Ans: 95.7% [middle of 4 runs]

Q: Sample "CNC(=O)c1ccc(N2C(=S)N(c3ccc(C#N)c(C(F)(F)F)c3)C(=O)C2(C)C)cc1F" — what was its viability, T/C?
Ans: 89% [middle of 4 runs]
